# Target Desc: human A1 AR (Homo sapiens)
# Construct: expressed in transfected cells
# Sequence (P30542 whole entry): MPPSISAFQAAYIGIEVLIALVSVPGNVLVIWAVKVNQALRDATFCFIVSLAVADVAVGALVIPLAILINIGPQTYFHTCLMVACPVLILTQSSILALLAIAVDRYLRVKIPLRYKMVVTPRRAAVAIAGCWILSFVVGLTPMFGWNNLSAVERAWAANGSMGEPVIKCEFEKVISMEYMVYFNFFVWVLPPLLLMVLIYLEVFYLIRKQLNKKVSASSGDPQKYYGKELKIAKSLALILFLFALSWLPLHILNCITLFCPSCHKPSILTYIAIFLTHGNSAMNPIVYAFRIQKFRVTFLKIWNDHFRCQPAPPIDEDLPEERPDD
# Test Summary: Radioligand binding at human A1 AR ([3H]NECA, membranes of CHO cells)
Observed Property: inhibition at 10 µM (%)
Please reply with the bare figure in % and do not write the unit itself.

Observe how each entry below is paired with its result.
1. O[C@@H]1[C@H](O)[C@@H]2C[C@@H]2[C@H]1n1cnc2c(NCc3cn(C45CC6CC(CC(C6)C4)C5)nn3)nc(Cl)nc21 [Compound 224] = 38.6
2. O=[N+]([O-])c1cc(-n2cc(CCCCC#Cc3cccc(CNc4nc(Cl)nc5c4ncn5[C@H]4[C@H](O)[C@H](O)[C@@H]5C[C@@H]54)c3)nn2)ccc1F [Compound 215] = 24.3
3. CNC(=O)[C@@]12C[C@@H]1[C@@H](n1cnc3c(NCc4cccc(Cl)c4)nc(-c4nnn(-c5ccc(N=C=S)cc5)c4CCCCc4cn(-c5ccc(N=C=S)cc5)nn4)nc31)[C@H](O)[C@@H]2O [Compound 25] = 4

Form field: reported inhibition at 10 µM of CNC(=O)[C@@]12C[C@@H]1[C@@H](n1cnc3c(NCc4cccc(Cl)c4)nc(C#CCCCCc4cn(-c5ccc(N)cc5)nn4)nc31)[C@H](O)[C@@H]2O [Compound 12]
3

Form field: reported inhibition at 10 µM of CNC(=O)[C@@]12C[C@@H]1[C@@H](n1cnc3c(NCc4cccc(Cl)c4)nc(C#CCCCCc4cn(-c5ccc(F)c([N+](=O)[O-])c5)nn4)nc31)[C@H](O)[C@@H]2O [Compound 11]
8

====

The following molecules are shown together with reported Ki values.
# Target Desc: human A3AR (Homo sapiens)
# Construct: expressed in transfected cells
# Sequence (P0DMS8 1-318): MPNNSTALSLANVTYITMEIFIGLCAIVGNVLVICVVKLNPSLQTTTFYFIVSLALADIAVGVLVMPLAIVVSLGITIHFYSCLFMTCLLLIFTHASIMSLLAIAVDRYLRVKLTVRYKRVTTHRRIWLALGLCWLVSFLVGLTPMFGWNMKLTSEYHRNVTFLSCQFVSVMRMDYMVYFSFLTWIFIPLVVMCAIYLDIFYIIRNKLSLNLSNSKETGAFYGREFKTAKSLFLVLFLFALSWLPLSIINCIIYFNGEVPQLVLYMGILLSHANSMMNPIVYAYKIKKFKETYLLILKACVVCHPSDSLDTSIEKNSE
# Test Summary: Radioligand binding at human A3 AR ([125I]I-AB-MECA, membranes of CHO cells)
# Run Conditions: [125I]38; CHO cells; read-out: Affinity (Ki, nM), A3

Form field: reported Ki of "CNC(=O)[C@@]12C[C@@H]1[C@@H](n1cnc3c(NCc4cccc(Cl)c4)nc(C#CCCCCc4cn(CCNC(C)=O)nn4)nc31)[C@H](O)[C@@H]2O"
22.3 nM

====

# Target Desc: human A3AR (Homo sapiens, UniProt P0DMS8)
# Construct: expressed in transfected cells
# Sequence (P0DMS8 1-318): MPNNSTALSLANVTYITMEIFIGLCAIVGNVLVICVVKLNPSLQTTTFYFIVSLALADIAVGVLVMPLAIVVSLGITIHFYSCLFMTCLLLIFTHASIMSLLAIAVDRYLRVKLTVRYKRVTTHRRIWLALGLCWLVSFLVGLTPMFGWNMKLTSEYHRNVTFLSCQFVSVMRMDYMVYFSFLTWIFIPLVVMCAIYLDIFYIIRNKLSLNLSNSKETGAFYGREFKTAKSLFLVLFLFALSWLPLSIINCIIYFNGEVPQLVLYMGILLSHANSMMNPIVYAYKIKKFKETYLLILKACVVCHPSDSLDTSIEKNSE
# Test Summary: Radioligand binding at human A3 AR ([125I]I-AB-MECA, membranes of CHO cells)
# Run Conditions: Example 7; agonist radioligand [125I]47; read-out: AR Affinity Ki, nM, A3
# Method: Test compounds were prepared as 5 mM stock solutions in DMSO and stored frozen at −20° C. […] Into each tube in the binding assay was added 50 μL of increasing concentrations of the test ligand in Tris-HCl buffer (50 mM, pH 7.5) containing 10 mM MgCl2, 50 μl, of the appropriate agonist radioligand, and finally 100 μL of membrane suspension. […] Nonspecific binding was determined using a final concentration of 10 μM unlabeled 36 diluted with the buffer. […]
So basically: is Ki under 100 nM? Then y. Not under? Then n.

Some solved entries appear below for comparison.
1) CNC(=O)[C@@]12C[C@@H]1[C@@H](n1cnc3c(NCc4cccc(C#CCCCCc5cn(C67CC8CC(CC(C8)C6)C7)nn5)c4)nc(Cl)nc31)[C@H](O)[C@@H]2O = y
2) O=[N+]([O-])c1cc(-n2cc(CCCCC#Cc3cccc(CNc4nc(Cl)nc5c4ncn5[C@H]4[C@H](O)[C@H](O)[C@@H]5C[C@@H]54)c3)nn2)ccc1F = n
3) CNC(=O)[C@@]12C[C@@H]1[C@@H](n1cnc3c(NCc4cccc(C#CCCCCCc5cn(-c6ccc(F)c(N)c6)nn5)c4)nc(Cl)nc31)[C@H](O)[C@@H]2O = y

Confirm or reject: Ki of "CNC(=O)[C@@]12C[C@@H]1[C@@H](n1cnc3c(NCc4cccc(C#CCCCCCc5cn(-c6ccc(F)c([N+](=O)[O-])c6)nn5)c4)nc(Cl)nc31)[C@H](O)[C@@H]2O" lies strictly below 100 nM
y

Confirm or reject: Ki of "C#CCNc1nc(Cl)nc2c1ncn2[C@H]1[C@H](O)[C@H](O)[C@@H]2C[C@@H]21" lies strictly below 100 nM
n

Confirm or reject: Ki of "CNC(=O)[C@@]12C[C@@H]1[C@@H](n1cnc3c(NCc4cccc(C#CCCCc5cn(-c6ccc(F)c([N+](=O)[O-])c6)nn5)c4)nc(Cl)nc31)[C@H](O)[C@@H]2O" lies strictly below 100 nM
y

====

# Target Desc: human A1 AR (Homo sapiens)
# Construct: expressed in transfected cells
# Test Summary: Radioligand binding at human A1 AR ([3H]NECA, membranes of CHO cells)
# Run Conditions: Example 7; agonist radioligand [3H]45; read-out: AR Affinity Ki, nM, A1
The following compounds are shown together with reported Ki values.
Please reply with the bare figure in nM and do not write the unit itself.

Observe how each entry below is paired with its result.
1. C#CCCCC#Cc1cccc(CNc2nc(Cl)nc3c2ncn3[C@H]2[C@H](O)[C@H](O)[C@]3(C(=O)NC)C[C@H]23)c1 [Compound 200] = 104
2. CNC(=O)[C@@]12C[C@@H]1[C@@H](n1cnc3c(NCc4cccc(C#CCCCCc5cn(C67CC8CC(CC(C8)C6)C7)nn5)c4)nc(Cl)nc31)[C@H](O)[C@@H]2O [Compound 206] = 1720
3. C#CCCCCC#Cc1cccc(CNc2nc(Cl)nc3c2ncn3[C@H]2[C@H](O)[C@H](O)[C@]3(C(=O)NC)C[C@H]23)c1 [Compound 201] = 1490
4. CNC(=O)[C@@]12C[C@@H]1[C@@H](n1cnc3c(NCc4cccc(C#CCCCc5cn(-c6ccc(F)c([N+](=O)[O-])c6)nn5)c4)nc(Cl)nc31)[C@H](O)[C@@H]2O [Compound 203] = 37.4

Form field: reported Ki of CNC(=O)[C@@]12C[C@@H]1[C@@H](n1cnc3c(NCc4cccc(I)c4)nc(Cl)nc31)[C@H](O)[C@@H]2O [Compound 127, reference compound]
136

Form field: reported Ki of C#CCNc1nc(Cl)nc2c1ncn2[C@H]1[C@H](O)[C@H](O)[C@@H]2C[C@@H]21 [Compound 222]
5870

Form field: reported Ki of CNC(=O)[C@@]12C[C@@H]1[C@@H](n1cnc3c(NCc4cccc(C#CCCCCc5cn(-c6ccc(F)c([N+](=O)[O-])c6)nn5)c4)nc(Cl)nc31)[C@H](O)[C@@H]2O [Compound 204]
2420

Form field: reported Ki of CNC(=O)[C@@]12C[C@@H]1[C@@H](n1cnc3c(NCc4cccc(C#CCCCCCc5cn(-c6ccc(F)c([N+](=O)[O-])c6)nn5)c4)nc(Cl)nc31)[C@H](O)[C@@H]2O [Compound 205]
1290

====

# Target Desc: hA2AAR (Homo sapiens, UniProt P29274)
# Construct: expressed in transfected cells
# Sequence (P29274 whole entry): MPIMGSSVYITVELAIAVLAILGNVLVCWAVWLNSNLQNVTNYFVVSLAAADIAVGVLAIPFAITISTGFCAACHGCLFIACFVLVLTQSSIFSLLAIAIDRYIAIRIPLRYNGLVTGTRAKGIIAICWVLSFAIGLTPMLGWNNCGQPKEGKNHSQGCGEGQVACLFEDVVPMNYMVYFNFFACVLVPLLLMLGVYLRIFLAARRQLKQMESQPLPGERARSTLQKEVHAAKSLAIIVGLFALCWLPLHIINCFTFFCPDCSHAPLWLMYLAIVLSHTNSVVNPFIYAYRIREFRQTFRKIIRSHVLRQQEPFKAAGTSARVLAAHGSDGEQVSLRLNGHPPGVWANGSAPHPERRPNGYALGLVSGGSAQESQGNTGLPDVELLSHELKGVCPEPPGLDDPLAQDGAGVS
# Test Summary: Radioligand binding at human A2A AR ([3H]CGS21680, membranes of HEK-293 cells)
# Run Conditions: Example 7; agonist radioligand [3H]46; HEK293; read-out: AR Affinity Ki, nM, A2A
Observed Property: Ki (nM)
Please reply with the bare figure in nM and do not write the unit itself.

Observe how each entry below is paired with its result.
1. CNC(=O)[C@@]12C[C@@H]1[C@@H](n1cnc3c(NCc4cccc(I)c4)nc(Cl)nc31)[C@H](O)[C@@H]2O [Compound 127, reference compound] = 784
2. C#CCCCC#Cc1cccc(CNc2nc(Cl)nc3c2ncn3[C@H]2[C@H](O)[C@H](O)[C@]3(C(=O)NC)C[C@H]23)c1 [Compound 200] = 4950

Form field: reported Ki of CNC(=O)[C@@]12C[C@@H]1[C@@H](n1cnc3c(NCc4cccc(C#CCCCc5cn(-c6ccc(F)c([N+](=O)[O-])c6)nn5)c4)nc(Cl)nc31)[C@H](O)[C@@H]2O [Compound 203]
1960
